- TEST_SYSTEM: NS3 protease (Hepatitis C virus subtype 1b, UniProt Q0ZMF1, A156V)
- TEST_METHOD_NOTES: Inhibition of Hepatitis C virus genotype 1b NS3/4A protease A156V mutant assessed as substrate cleavage using Ac-C(Eu)DDMEEAbu(COO)ASK(QSY7)-amide as substrate incubated for 30 mins prior to substrate addition by time-resolved fluorescence assay
PROPERTY_MEASURED: pIC50
The meaning of pIC50 here: minus log10 of the concentration in molar units.

Some entries whose results are on file:
C=C[C@@H]1C[C@]1(NC(=O)[C@@H]1C[C@@H]2CN1C(=O)[C@H](C1CCCCC1)NC(=O)O[C@@H]1C[C@H]1CCCCCc1c(nc3ccccc3c1OCCCNC1CC(F)(F)C1)O2)C(=O)NS(=O)(=O)C1(C)CC1 :: 9.42
C=C[C@@H]1C[C@]1(NC(=O)[C@@H]1C[C@@H]2CN1C(=O)[C@H](C1CCCCC1)NC(=O)O[C@@H]1C[C@H]1CCCCCc1c(nc3ccccc3c1OC1CCN(C(=O)OC(C)(C)C)CC1)O2)C(=O)NS(=O)(=O)C1(C)CC1 :: 7.84
C=C[C@@H]1C[C@]1(NC(=O)[C@@H]1C[C@@H]2CN1C(=O)[C@H](C1CCCCC1)NC(=O)O[C@@H]1C[C@H]1CCCCCc1c(nc3ccccc3c1OC1CCN(CCS(C)(=O)=O)CC1)O2)C(=O)NS(=O)(=O)C1(C)CC1 :: 8.42

### Prompt Query the reported pIC50 for NS3 protease (Hepatitis C virus subtype 1b, UniProt Q0ZMF1, A156V); item: C=C[C@@H]1C[C@]1(NC(=O)[C@@H]1C[C@@H]2CN1C(=O)[C@H](C1CCCCC1)NC(=O)O[C@@H]1C[C@H]1CCCCCc1c(nc3ccccc3c1OCCCN1CC(F)(F)C1)O2)C(=O)NS(=O)(=O)C1(C)CC1
### Response 8.89

* * *

Consider the following molecules and their measured IC50 readings.
- TEST_SYSTEM: NS3 protease (Hepatitis C virus subtype 1b, UniProt Q0ZMF1, D168Y)
- TEST_METHOD_NOTES: Inhibition of Hepatitis C virus genotype 1b NS3/4A protease D168Y mutant assessed as substrate cleavage using Ac-C(Eu)DDMEEAbu(COO)ASK(QSY7)-amide as substrate incubated for 30 mins prior to substrate addition by time-resolved fluorescence assay

C=C[C@@H]1C[C@]1(NC(=O)[C@@H]1C[C@@H]2CN1C(=O)[C@H](C1CCCCC1)NC(=O)O[C@@H]1C[C@H]1CCCCCc1c(nc3ccccc3c1OC1CCN(C(=O)OC(C)(C)C)CC1)O2)C(=O)NS(=O)(=O)C1(C)CC1 :: 13.5 nM

### Prompt Which value of IC50 has been reported for C=C[C@@H]1C[C@]1(NC(=O)[C@@H]1C[C@@H]2CN1C(=O)[C@H](C(C)(C)C)NC(=O)O[C@@H]1C[C@H]1CCCCCc1c(nc3ccccc3c1O[C@@H]1C[C@H]3CC[C@@H](C1)N3CC)O2)C(=O)NS(=O)(=O)C1(C)CC1 in the records?
### Response 0.57 nM

### Prompt Which value of IC50 has been reported for C=C[C@@H]1C[C@]1(NC(=O)[C@@H]1C[C@@H]2CN1C(=O)[C@H](C1CCCCC1)NC(=O)O[C@@H]1C[C@H]1CCCCCc1c(nc3ccccc3c1OCCCNC1CCC1)O2)C(=O)NS(=O)(=O)C1(C)CC1 in the records?
### Response 0.3 nM

### Prompt Which value of IC50 has been reported for C=C[C@@H]1C[C@]1(NC(=O)[C@@H]1C[C@@H]2CN1C(=O)[C@H](C1CCCCC1)NC(=O)O[C@@H]1C[C@H]1CCCCCc1c(nc3ccccc3c1OCCCNC1CC(F)(F)C1)O2)C(=O)NS(=O)(=O)C1(C)CC1 in the records?
### Response 0.32 nM

### Prompt Which value of IC50 has been reported for C=C[C@@H]1C[C@]1(NC(=O)[C@@H]1C[C@@H]2CN1C(=O)[C@H](C1CCCCC1)NC(=O)O[C@@H]1C[C@H]1CCCCCc1c(nc3ccccc3c1OC1CCN(C)CC1)O2)C(=O)NS(=O)(=O)C1(C)CC1 in the records?
### Response 0.29 nM
